Hello, the source for this data is a collection of fitness landscapes (doi:10.1016/j.celrep.2020.107928), in case you need it.

B1: Caulobacter ParB omega fusion; a variant is named by its letters at X, in order, B8GW30 (parent)
chain: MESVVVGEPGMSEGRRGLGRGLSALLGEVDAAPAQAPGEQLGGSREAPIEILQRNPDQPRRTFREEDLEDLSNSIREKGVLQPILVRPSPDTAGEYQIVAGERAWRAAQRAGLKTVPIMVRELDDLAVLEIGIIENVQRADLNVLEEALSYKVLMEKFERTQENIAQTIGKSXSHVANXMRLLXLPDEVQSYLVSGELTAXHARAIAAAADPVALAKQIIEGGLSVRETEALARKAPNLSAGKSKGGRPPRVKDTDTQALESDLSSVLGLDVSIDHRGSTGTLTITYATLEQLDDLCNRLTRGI

Variants of: B1
protocol.details: one-hybrid fitness for binding parS DNA (scaled: cognate 1, non-cognate 0); higher = stronger binding
experimental.parameters: with parS DNA site
In all, about 81,000 sequences were measured (“one-hybrid fitness for binding parS DNA”: median about -0.17, highest 2% from about 0.51 on). Shown is part of a subset that was picked to be rich in the highest values.
reported.endpoint: one-hybrid fitness for binding parS DNA

Q: Answer with reported one-hybrid fitness for binding parS DNA of DTNA
A: ≤ 0.2

Q: Provide one value: measured one-hybrid fitness for binding parS DNA of CRCT
A: ≤ 0.2

Q: Specify one-hybrid fitness for binding parS DNA for NTNA and stop.
A: ≤ 0.2

Q: Hello, please tell me recorded one-hybrid fitness for binding parS DNA for this one: RKFF
A: ≤ 0.2

Q: Name the recorded one-hybrid fitness for binding parS DNA of the item RGNP in your answer.
A: ≤ 0.2

Q: Input NVVA , output reported one-hybrid fitness for binding parS DNA.
A: ≤ 0.2

Q: Answer with reported one-hybrid fitness for binding parS DNA of RGDA
A: 0.235

Q: // fetch one-hybrid fitness for binding parS DNA given entry RFSC
A: 0.935

Q: Return reported one-hybrid fitness for binding parS DNA. Input variant: DFYC
A: ≤ 0.2

Q: Complete the entry with one-hybrid fitness for binding parS DNA for RGNS
A: 0.862

Q: Answer with the recorded one-hybrid fitness for binding parS DNA for the variant listed here: SVKA
A: ≤ 0.2

Q: Return reported one-hybrid fitness for binding parS DNA. Input variant: RGDS
A: 0.551

Q: Tell me its one-hybrid fitness for binding parS DNA given KLPC as the entry.
A: ≤ 0.2

Q: Retrieve one-hybrid fitness for binding parS DNA measured for DRAS and print it.
A: ≤ 0.2

Q: Please look at this variant and report its one-hybrid fitness for binding parS DNA: RGDP
A: ≤ 0.2

Q: Check the records and state one-hybrid fitness for binding parS DNA for DLWS
A: ≤ 0.2

Q: Consider the variant RFHC . State its measured one-hybrid fitness for binding parS DNA.
A: 0.925

Q: Answer with the recorded one-hybrid fitness for binding parS DNA of RSFC only.
A: 0.892

Q: Annotate the variant RGDN with its measured one-hybrid fitness for binding parS DNA.
A: ≤ 0.2

Q: Supply recorded one-hybrid fitness for binding parS DNA for DKVG here.
A: ≤ 0.2

Q: Quote one-hybrid fitness for binding parS DNA reported for RVKA please.
A: 0.756

Q: Answer with the recorded one-hybrid fitness for binding parS DNA for the variant listed here: RFYN
A: 0.357

Q: Consider the variant TTAR . State its measured one-hybrid fitness for binding parS DNA.
A: ≤ 0.2

Q: Read off the recorded one-hybrid fitness for binding parS DNA for YLAV
A: ≤ 0.2

Q: Give recorded one-hybrid fitness for binding parS DNA. RFCC
A: 0.87

Q: Tell me its one-hybrid fitness for binding parS DNA given DVVA as the entry.
A: ≤ 0.2

Q: Quote one-hybrid fitness for binding parS DNA reported for MCDS please.
A: ≤ 0.2

Q: Output measured one-hybrid fitness for binding parS DNA for this item: TAPI
A: ≤ 0.2

Q: Identify one-hybrid fitness for binding parS DNA associated with the variant MIIT
A: ≤ 0.2

Q: Provide measured one-hybrid fitness for binding parS DNA value, entry: RSFM
A: 0.292

Q: Determine from records and report one-hybrid fitness for binding parS DNA for NFCC
A: ≤ 0.2

Q: Please supply the value of reported one-hybrid fitness for binding parS DNA for the item DVKA
A: ≤ 0.2

Q: Specify measured one-hybrid fitness for binding parS DNA for ESQE .
A: ≤ 0.2

Q: # return recorded one-hybrid fitness for binding parS DNA for entry ASVG
A: ≤ 0.2

Q: Provide one-hybrid fitness for binding parS DNA value for the following variant: RCFC
A: 1.03

Q: Give reported one-hybrid fitness for binding parS DNA value for ALYT
A: ≤ 0.2

Q: Output one-hybrid fitness for binding parS DNA of WPQC
A: 0.245

Q: Query one-hybrid fitness for binding parS DNA for DFSC
A: ≤ 0.2

Q: Consider the variant SQQG and give its recorded one-hybrid fitness for binding parS DNA.
A: ≤ 0.2

Q: Quickly give me recorded one-hybrid fitness for binding parS DNA for RPFC
A: ≤ 0.2

Q: Read the entry RKFY and write its reported one-hybrid fitness for binding parS DNA.
A: 0.363

Q: Let me know recorded one-hybrid fitness for binding parS DNA for REFC , thanks.
A: ≤ 0.2

Q: Note one-hybrid fitness for binding parS DNA for the variant shown: RVVA
A: 0.565

Q: // Input: REHW . Output its one-hybrid fitness for binding parS DNA only.
A: ≤ 0.2

Q: Recall and state the measured one-hybrid fitness for binding parS DNA for RKAQ .
A: ≤ 0.2

Q: Check the records and state one-hybrid fitness for binding parS DNA for GLTA
A: ≤ 0.2
